Reference source: patent US10363261B2

Assay: physchem
Conditions: cell culture media

# MOLECULE, half-life at 1.5 mM (min)
rows = [
    ("CC(C)(C)C(=O)OCOP(=O)(OCOC(=O)C(C)(C)C)C1CC(O)N(O)C1=O (stereo not shown)", 480),
]
